Field: GFP response vs DMSO. Provide a value for each of the compounds that follow.
assay text: RPL19A-GFP modulators, yeast TOR pathway, confirmation, cell-based, S. cerevisiae, flow cytometry, cherry picks, mother/daughter gates (AID 2270)
measurement context: S. cerevisiae RPL19A-GFP strain, 3 h, measured here: daughter cell gate, at 10 µM, stronger effect = lower value, 100 = same GFP as DMSO wells

Sample records with GFP response vs DMSO:
Fc1ccccc1-c1nc(NCCCN2CCOCC2)c2ccccc2n1; 93.6%
Cc1ccc(/C=C/c2ccc(N(C)C)cc2)[n+](C)c1; 94.2%

Record GFP response vs DMSO for all entries; do not skip any.
1. O=C1/C(=C\c2ccc(O)c(O)c2)SC(=S)N1Cc1ccccc1
2. CCOc1ccccc1N1CCN(C(=O)c2ccccc2)CC1
3. O=C1C=CC(=O)N1c1ccc(Sc2ccc([N+](=O)[O-])cc2)cc1
4. N#Cc1ccc(Sc2ccccn2)c([N+](=O)[O-])c1

[out]
1: 99.1%; 2: 98.5%; 3: 96.8%; 4: 101%

---

assay text: RPL19A-GFP modulators, yeast TOR pathway, confirmation, cell-based, S. cerevisiae, flow cytometry, cherry picks, mother/daughter gates (AID 2270)
measurement context: S. cerevisiae RPL19A-GFP strain, 3 h, measured here: mother cell gate, at 10 µM, stronger effect = lower value, 100 = same GFP as DMSO wells
parameter measured: GFP response vs DMSO
Put your answer as a value accompanied by its unit after it.

CSc1ccc(/C=N/NC(=O)c2ccc(O)cc2)cc1; 98.5%
COc1cc(/C=C2\N=C(C)OC2=O)cc(Cl)c1OC(C)=O; 102%
S=c1[nH]nc(NCCCN2CCOCC2)s1; 95.1%

Provide the reported GFP response vs DMSO of each entry below, same order.
1. Cc1ccc(C(=O)N/C(=C/c2ccco2)C(=O)N2CCOCC2)cc1
2. Cc1cccc(NC(=O)c2ccccc2O)c1C
3. N/C(=N\OC(=O)c1cc(Br)ccc1Cl)c1ccccn1
4. COc1ccc(C2CC(c3cccs3)=NN2S(=O)(=O)c2ccc(C)cc2)cc1 (stereo unspecified)
5. CC(=O)Nc1ccc(Nc2cc(C)nc3c(-c4ccc(Cl)cc4)c(C)nn23)cc1
6. COc1ccc(S(=O)(=O)N2CCC(O)(c3ccc(Cl)cc3)CC2)cc1
7. CC(C)(C)C1=CC=C(C(C)(C)C)C(=O)C1=O
8. Cc1ccc(-c2nc3ccccn3c2NC(=O)c2ccco2)cc1

[out]
1. 104%
2. 96.9%
3. 97.7%
4. 98.6%
5. 95.8%
6. 101%
7. 99.7%
8. 95%

---

assay text: modulators of CIT2-GFP expression in yeast, confirmation, S. cerevisiae, GFP fusion, cherry picks, mother/daughter gates (AID 2274)
measurement context: S. cerevisiae CIT2-GFP strain, flow cytometry, 3 h; measured here: daughter cell gate; at 10 µM; stronger effect = higher value
Would you mind telling me the reported GFP response, % of DMSO of each entry?
Answers are plain numbers, in %.

Consider the following illustrative entries.
COc1ccc(-c2nc3cccc(C)n3c2NCc2ccco2)cc1OC; 99.3
COc1ccc(S(=O)(=O)N2CCC(O)(c3ccc(Cl)cc3)CC2)cc1; 106
COc1ccc(C(=O)c2no[n+]([O-])c2C(=O)c2ccc(OC)cc2)cc1; 77.1
O=C1CC(Sc2ncccn2)C(=O)N1c1ccccc1C(F)(F)F (stereo unspecified); 96.5
Cc1ccc(NN2C(=O)C=C(c3ccc(Cl)cc3)C2=O)cc1; 91.7

As a next step, examine the molecule that follows.
[in] Return reported GFP response, % of DMSO; argument: `COc1ccc(-c2noc(CCCc3ccccc3)n2)cc1OC`
[out] 94.8

---

assay text: LAP4-GFP expression modulators in yeast, confirmation, cell-based, cherry picks, flow cytometry, mother/daughter gates (AID 2271);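 also: ratio of sample to DMSO plate mean so 100% equals DMSO level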
measurement context: S. cerevisiae LAP4-GFP strain, 3 h, at 10 µM, stronger effect = higher value, 100 means same as DMSO control
parameter measured: GFP response relative to DMSO (%)
Answers are plain numbers, in %.

Provide GFP response relative to DMSO for all items below, preserving their order.
1. CCc1ccc2c(c1)C1(NN=C(c3ccccc3)S1)C(=O)N2 (stereo unspecified)
2. COc1ccccc1N1C(=O)CC(Sc2nccc(C)n2)C1=O (stereo unspecified)
3. O=C1c2ccsc2SCCN1Cc1ccc(F)cc1
4. Cc1sc(NC(=O)c2cccs2)nc1-c1ccccc1
5. NC(=O)c1ccccc1-c1nc(-c2ccccc2)no1
6. O=C(O)CCC(=O)Nc1ccc(S(=O)(=O)c2ccc(NC(=O)CCC(=O)O)cc2)cc1

[out]
1: 133; 2: 95.7; 3: 111; 4: 110; 5: 101; 6: 102

---

assay text: yeast V-ATPase proton transport modulators, S. cerevisiae, pHLuorin, HTS validation (AID 504600);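 also: plate controls were DMSO for no effect and reference compound for full effect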
measurement context: S. cerevisiae pHLuorin cytosolic pH, at 10 µM, stronger effect = higher value
parameter measured: response (%)
Answers are plain numbers, in %.

In the examples that follow, each entry is paired with its recorded response.
CCOc1ccccc1C(=O)NCCC(=O)O; 1.48
CC(=O)O[C@H]1CC[C@H]2[C@@H]3CCc4cc(O)ccc4[C@H]3CC[C@]12C; 2.35
CC(=O)Oc1ccc2occ(/C=N/c3cc(=O)[nH]c(=S)[nH]3)c(=O)c2c1; -8.27
COC(=O)c1ccc(COc2ccc3c(C)c(C)c(=O)oc3c2C)o1; -2.54

I have 3 compounds here; please give me response for each one.
1. COc1c2occc2c(OC)c2c(=O)cc(C(F)(F)C(F)(F)F)oc12
2. O=C(CCCN1CCC(O)(c2ccc(Cl)cc2)CC1)c1ccc(F)cc1
3. COc1ccc(C(=O)NC(=O)NC2(C(Cl)(Cl)Cl)OCCO2)cc1

[out]
-16
-1.24
-0.88

Give response for each listed item.
1. COc1cc(C2CC(=O)NC3=C2C(=O)CC(C)(C)C3)ccc1O (stereo unspecified)
2. O=C(O)c1ccccc1O
3. COC(=O)c1cc(-c2c(C)oc3cc(OC)ccc3c2=O)c(C)o1
4. COc1ccc2c(CCNC(=O)c3ccc([N+](=O)[O-])cc3)c[nH]c2c1

[out]
1. -2.29
2. -0.04
3. 1.93
4. -0.21

---

Exercise: for every item that follows, state its recorded GFP response relative to DMSO.
assay text: LAP4-GFP expression modulators in yeast, confirmation, cell-based, cherry picks, flow cytometry, mother/daughter gates (AID 2271);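 also: ratio of sample to DMSO plate mean so 100% equals DMSO level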
measurement context: S. cerevisiae LAP4-GFP strain, 3 h, measured here: mother cell gate response, at 10 µM, stronger effect = higher value, 100 means same as DMSO control
One number for each entry, in %.

For orientation, consider the following solved cases.
Cc1ccccc1NC(=O)c1ccccc1; 94
Cc1ccccc1N1C(=O)C(Cl)=C(N2CCN(c3ccccc3)CC2)C1=O; 102
Cc1ccc(/C=C/C(=O)c2ccccc(=O)c2O)c(C)c1; 158

List GFP response relative to DMSO for every entry below, keeping the order given.
1. Cc1ccc(CC2CC(=O)N(Cc3ccco3)C2=O)cc1 (stereo not drawn)
2. CC(C)C(=O)Nc1ccc(NC(=O)c2cc3ccccc3o2)cc1
3. CCS(=O)(=O)N1N=C(c2ccccc2)CC1c1ccc2nccnc2c1 (stereo not drawn)
4. COC(=O)c1cc(N2C(=O)C3C(C2=O)C2(C)C=CC3(C)O2)ccc1Cl (stereo not drawn)
5. Cc1cccc(N2C(=O)c3cccc4c(N(C)CCO)ccc(c34)C2=O)c1
6. O=S(=O)(c1ccc(Cl)cc1)c1snnc1-c1ccccc1
7. N=c1n(CCN2CCCCC2)c2ccccc2n1CC(=O)c1ccc(Cl)c(Cl)c1
8. COc1ccc(N2CCN(c3nc4c(C)cccn4c(=O)c3/C=C(\C#N)C(N)=O)CC2)cc1

[out]
1. 94.2
2. 102
3. 104
4. 177
5. 109
6. 129
7. 102
8. 101

Below is a list of compounds. For each, state its recorded GFP response relative to DMSO.
1. CCCc1cc(=O)n(-c2nc3ccccc3s2)[nH]1
2. COc1ccc(-c2ccc(S(=O)(=O)N3CCOCC3)cc2)cc1
3. O=C(CNC(=O)c1ccncc1)N/N=C/c1cccc([N+](=O)[O-])c1
4. O=S(=O)(c1ccc(C2CCCCC2)cc1)N1CCOCC1
5. Cc1ccc(CCN2CC(C(=O)NCCCN(C)Cc3ccccc3)CC2=O)cc1 (stereo not drawn)
6. CCOC(=O)C(=CNNc1cccc(Cl)c1)C(=O)OCC
7. Cc1ccc(NC(=O)c2ccccc2O)cc1

[out]
99.4
107
98.3
105
100
137
99.5

---

Assign GFP response vs DMSO to each entry below.
assay text: RPL19A-GFP modulators, yeast TOR pathway, confirmation, cell-based, S. cerevisiae, flow cytometry, cherry picks, mother/daughter gates (AID 2270)
measurement context: S. cerevisiae RPL19A-GFP strain, 3 h, at 10 µM, stronger effect = lower value, 100 = same GFP as DMSO wells
Give bare numbers, in %.

The following molecules have reported results that may help.
COc1ccc(OC)c(C(=O)/C=C/c2ccccc2C(F)(F)F)c1; 97.6
Cc1cc(C)c(OCC(=O)Nc2nc(-c3ccccn3)cs2)c(C)c1; 98.6
COc1ccc(NC(=O)C2CCN(S(=O)(=O)c3ccc(OC)c(OC)c3)CC2)c(OC)c1; 90.6
COc1ccc(N2CCN(C(=O)CCc3nnc4ccc(N5CCCC5)nn34)CC2)cc1; 101

Provide GFP response vs DMSO values for the following items, in order.
1. CN1CCN(CCCCOc2ccccc2C=O)CC1
2. N#Cc1nccnc1S(=O)(=O)c1cccs1

[out]
1: 99.5; 2: 96.2

Where these numbers come from: PubChem BioAssay
